- testSystem: ABHD6 (Mus musculus, UniProt Q8R2Y0)
- Construct: Brain; from tissue; host or cells: mouse brain proteome
- Sequence (Q8R2Y0 whole entry): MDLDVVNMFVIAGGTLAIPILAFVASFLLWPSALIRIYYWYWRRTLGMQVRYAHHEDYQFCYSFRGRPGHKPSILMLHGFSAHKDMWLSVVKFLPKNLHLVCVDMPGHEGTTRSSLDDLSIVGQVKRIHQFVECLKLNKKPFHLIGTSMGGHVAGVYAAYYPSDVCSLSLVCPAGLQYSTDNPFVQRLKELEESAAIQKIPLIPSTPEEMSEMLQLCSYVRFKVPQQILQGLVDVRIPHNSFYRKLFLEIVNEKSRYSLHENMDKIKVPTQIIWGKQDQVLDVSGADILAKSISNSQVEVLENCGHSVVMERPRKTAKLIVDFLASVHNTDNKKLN
- experimentalProtocol: In vitro competitive activity-based protein profiling, mouse brain proteome (ABHD6)
- Type: biochemical
- statedConditions: mouse brain proteome; concentration not given (μM)

- compound: "CS(=O)(=O)N1CCN(c2cccc(C(F)(F)F)c2CN2CC3(CCN(C(=O)OC(C(F)(F)F)C(F)(F)F)CC3)C2)CC1 [Example 53]"
  % Inh ABHD6 Brain (Mouse, μM): "### (### is ≥75%)"
- compound: "O=C(OC(C(F)(F)F)C(F)(F)F)N1CC2(CCN(Cc3ccc(Cl)c(Cl)c3)CC2)C1 [Example 55]"
  % Inh ABHD6 Brain (Mouse, μM): "### (### is ≥75%)"
- compound: "CC(=O)N1CCCC12CCN(c1cc(Cl)ccc1CN1CCN(C(=O)OC(C(F)(F)F)C(F)(F)F)CC1)CC2 [Example 204]"
  % Inh ABHD6 Brain (Mouse, μM): "# (# is ≤25%)"
- compound: "CS(=O)(=O)N1CC2(CCN(c3cc(C(F)(F)F)ccc3CN3CCN(C(=O)OC(C(F)(F)F)C(F)(F)F)CC3)C2)C1 [Example 186]"
  % Inh ABHD6 Brain (Mouse, μM): "# (# is ≤25%)"
- compound: "O=C(OC(C(F)(F)F)C(F)(F)F)N1CCC2(CCN(Cc3cccc(Cl)c3N3CCCC3)CC2)C1 [Example 171]"
  % Inh ABHD6 Brain (Mouse, μM): "# (# is ≤25%)"
- compound: "CN(Cc1ccc(C(F)(F)F)cc1N1CCC(N2CCC[C@@H]2C(=O)O)CC1)C1(C)CCN(C(=O)OC(C(F)(F)F)C(F)(F)F)CC1 [Example 162]"
  % Inh ABHD6 Brain (Mouse, μM): "# (# is ≤25%)"
- compound: "CC(=O)N1CCC2(CC1)CN(c1cc(Cl)ccc1CN1CCN(C(=O)OC(C(F)(F)F)C(F)(F)F)CC1)C2 [Example 198]"
  % Inh ABHD6 Brain (Mouse, μM): "# (# is ≤25%)"
- compound: "O=C(OC(C(F)(F)F)C(F)(F)F)N1CCC2(CC1)CN(Cc1c(N3CCC(F)CC3)cccc1C(F)(F)F)C2 [Example 51]"
  % Inh ABHD6 Brain (Mouse, μM): "### (### is ≥75%)"
- compound: "CC(=O)N1CCC2(CCN(c3ccccc3CN3CCN(C(=O)OC(C(F)(F)F)C(F)(F)F)CC3)C2)C1 (centres unmarked) [Example 166]"
  % Inh ABHD6 Brain (Mouse, μM): "# (# is ≤25%)"
- compound: "N#Cc1ccc(C(=O)N2CCC3(CCN(C(=O)OC(C(F)(F)F)C(F)(F)F)CC3)C2)cc1C(F)(F)F [Example 12]"
  % Inh ABHD6 Brain (Mouse, μM): "### (### is ≥75%)"
- compound: "CC1(C(=O)O)CCCN(c2cc(CN3CC4(CCN(C(=O)OC(C(F)(F)F)C(F)(F)F)CC4)C3)cc(C(F)(F)F)c2)C1 (centres unmarked) [Example 114]"
  % Inh ABHD6 Brain (Mouse, μM): "# (# is ≤25%)"
- compound: "CC(=O)N1CCCc2cccc(CN3CCC4(CC3)CN(C(=O)OC(C(F)(F)F)C(F)(F)F)C4)c21 [Example 152]"
  % Inh ABHD6 Brain (Mouse, μM): "### (### is ≥75%)"
- compound: "O=C(OC(C(F)(F)F)C(F)(F)F)N1CCC2(CCCN2C(=O)c2ccc(Cl)cc2)CC1 [Example 13]"
  % Inh ABHD6 Brain (Mouse, μM): "### (### is ≥75%)"
- compound: "CS(=O)(=O)N1CCc2cccc(CN3CCC4(CC3)CCN(C(=O)OC(C(F)(F)F)C(F)(F)F)C4)c2C1 [Example 217]"
  % Inh ABHD6 Brain (Mouse, μM): "### (### is ≥75%)"
- compound: "CC(=O)N1CCN(c2cccc(C(F)(F)F)c2CN2CC3(CCN(C(=O)OC(C(F)(F)F)C(F)(F)F)CC3)C2)CC1 [Example 59]"
  % Inh ABHD6 Brain (Mouse, μM): "### (### is ≥75%)"
- compound: "O=C(OC(C(F)(F)F)C(F)(F)F)N1CCC2(CC1)CN(Cc1c(Cl)cccc1N1CC3COCC3C1)C2 (centres unmarked) [Example 57]"
  % Inh ABHD6 Brain (Mouse, μM): "### (### is ≥75%)"
